Values compiled from patent US10689392B2.

test: Pharmacokinetics in mice after intraperitoneal or oral administration; format: in vivo; settings: mouse, blood, intraperitoneal (IP)
measure: AUC(0-inf) (ng·h/mL)
API: value field is a number in ng·h/mL; no unit string.

// query Give the measured AUC(0-inf) of CCCCC(=O)N1c2ccccc2NC2=C(C(=O)CCC2)C1c1ccccc1Cl (stereo not shown) .
// result 30500

* * *

test: Pharmacokinetics in mice after intraperitoneal or oral administration; format: in vivo; conditions: mouse, blood, intraperitoneal (IP), read-out: t½ (converted)
measure: half-life (h)
API: value field is a number in h; no unit string.

// query Give the measured half-life of CCCCC(=O)N1c2ccccc2NC2=C(C(=O)CCC2)C1c1ccccc1Cl (stereo not shown) .
// result 3.7
